Values from patent US20180282719A1

Target: T1, recombinant soluble human IL-6 receptor (SR344) (human, UniProt P08887 20-344, biotinylated (sites not given) where immobilized via streptavidin or used in phage ELISA)
T1 construct: also called soluble IL-6 receptor; membrane-type IL-6 receptor (when biotinylated and immobilized on the chip)
T1 sequence (looked up): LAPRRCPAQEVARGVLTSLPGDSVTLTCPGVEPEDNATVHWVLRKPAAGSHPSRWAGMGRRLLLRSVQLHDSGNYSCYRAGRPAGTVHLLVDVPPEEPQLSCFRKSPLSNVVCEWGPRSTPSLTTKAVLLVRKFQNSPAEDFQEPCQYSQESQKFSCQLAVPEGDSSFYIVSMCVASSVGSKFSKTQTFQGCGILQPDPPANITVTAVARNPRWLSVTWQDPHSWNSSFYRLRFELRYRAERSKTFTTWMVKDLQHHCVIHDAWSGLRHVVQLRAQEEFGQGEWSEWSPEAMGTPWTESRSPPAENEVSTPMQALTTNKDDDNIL
Experiment: SPR Biacore T100, antibody on protein A/G chip, SR344 analyte, pH 5.8, 37 C
Form field: pKd (one value per entry).
Just so you know, pKd here is -log10 of the concentration in molar units; reply with that number alone.

# binder, obs_value
data = [
    ("humanized PM1 antibody (wild type, WT) (antibody, human IgG1, kappa, V domains shown, IgG1; also called WT-IgG1; wild type humanized anti-IL-6 receptor antibody) VH: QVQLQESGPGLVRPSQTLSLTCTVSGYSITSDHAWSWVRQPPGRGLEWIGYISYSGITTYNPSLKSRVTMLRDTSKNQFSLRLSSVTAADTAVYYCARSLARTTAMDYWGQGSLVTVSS VL: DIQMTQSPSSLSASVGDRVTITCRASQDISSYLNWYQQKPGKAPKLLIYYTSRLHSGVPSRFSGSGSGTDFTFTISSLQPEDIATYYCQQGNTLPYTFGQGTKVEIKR", 8.30),
    ("H170/L82 (antibody, IgG1, V domains shown, expressed and purified as IgG (IgG1); also called H170/L82-IgG1) VH: QVQLQESGPGLVKPSETLSLTCAVSGHSISHHHAHSWVRQPPGEGLEWIGYISYSGITHYNPHLKGRVTISRDTSKNQFSLKLSSVTAADTAAYYCARVLARITAMDHWGEGTLVTVSS VL: DIQMTQSPSSLSASVGDSVTITCQASQDISSHLNWYQQKPGKAPELLIYYGSHLHSGVPSRFSGSGSGTDFTFTISSLEAEDAATYYCGQGNRLPYTFGQGTKVEIE", 6.19),
    ("H3pI/L73 (antibody, IgG1, V domains shown, tested as IgG1; also called H3pI/L73-IgG1; H3pl/L73) VH: QVQLQESGPGLVKPSETLSLTCAVSGHSISHDHAHSWVRQPPGEGLEWIGYISYSGITNYNPSLKGRVTISRDTSKNQFSLKLSSVTAADTAAYYCARSLARTTAMDYWGEGTLVTVSS VL: DIQMTQSPSSLSASVGDSVTITCQASQHISSHLNWYQQKPGKAPELLIYYGSHLHSGVPSRFSGSGSGTDFTFTISSLEAEDAATYYCGQGNRLPYTFGQGTKVEIE", 7.24),
]

Let us move to another entry and its pKd.
CLH5/L73 (antibody, IgG1, V domains shown, expressed and purified as IgG) VH: QVQLQESGPGLVKPSETLSLTCAVSGYSISHDHAWSWVRQPPGEGLEWIGHISYSGITNYNPHLKGRVTISRDTSKNQFSLKLSSVTAADTAAYYCARFLARITAHDHWGEGTLVTVSS VL: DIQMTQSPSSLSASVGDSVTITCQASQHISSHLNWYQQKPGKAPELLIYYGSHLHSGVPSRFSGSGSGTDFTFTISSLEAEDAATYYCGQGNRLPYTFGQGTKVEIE yielded pKd of 7.13
